Measured Myocarditis incidence values are reported for all entries that follow.
System: A/J mice (hearts)
Assay: Induction of myocarditis by active immunization with peptides (histology)
Format: in vivo
Conditions: individual non-acetylated peptide, 100 µg per animal, CFA/PT, days 0 and 7; day 21
Express the result in % but write the number alone.

Use the examples below as a reference point.
Substance	Readout	Unit Of Measurement	Measured Value
β1AR 191-210: 20-mer of mouse β1AR peptide library (FLPILMHWWRAESDEARRCY; UniProt P34971 191-210, looked up, fragment)	Myocarditis incidence	%	0
TRARARALVCTVWAISALVS [β1AR 171-190, 20-mer of mouse β1AR peptide library]	Myocarditis incidence	%	0
TVWAISALVSFLPILMHWWR [β1AR 181-200, 20-mer of mouse β1AR peptide library]	Myocarditis incidence	%	20
NDPKCCDFVTNRAYAIASSV [β1AR 211-230, 20-mer of mouse β1AR peptide library]	Myocarditis incidence	%	40
β1AR 381-400: 20-mer of mouse β1AR peptide library (CCARRAACRRRAAHGDRPRA; UniProt P34971 381-400, looked up, fragment)	Myocarditis incidence	%	0

Quick one: Myocarditis incidence for β1AR 201-220: 20-mer of mouse β1AR peptide library (AESDEARRCYNDPKCCDFVT; UniProt P34971 201-220, looked up, fragment) ?
0

Returns the measured Myocarditis incidence for the input substance. Input: β1AR 391-410: 20-mer of mouse β1AR peptide library (RAAHGDRPRASGCLARAGPP; UniProt P34971 391-410, looked up, fragment)
0
